# System: LNCaP (PSMA+)
# Assay type: cell-based
# test.parameters: IC50 PC3 (PSMA−) / IC50 LNCaP (PSMA+)
endpoint.label: S (selectivity)
API note: the answer field is a bare number with no unit suffix.

What does the record list as S (selectivity) for CC[C@H](C)[C@@H]1NC(=O)CNC(=O)[C@@H]2Cc3c([nH]c4cc(OCc5ccc(NC(=O)[C@H](CCCNC(N)=O)NC(=O)[C@@H](NC(=O)CCCCCN6C(=O)CC(SC[C@H](NC(=O)[C@H](Cc7ccccc7)NC(=O)[C@H](Cc7ccccc7)NC(=O)CCCCCCCNC(=O)CC[C@H](NC(=O)N[C@@H](CCC(=O)O)C(=O)O)C(=O)O)C(=O)O)C6=O)C(C)C)cc5)ccc34)[S@+]([O-])C[C@H](NC(=O)CNC1=O)C(=O)N[C@@H](CC(N)=O)C(=O)N1C[C@H](O)C[C@H]1C(=O)N[C@@H]([C@@H](C)[C@@H](O)CO)C(=O)N2 (stereo partly shown) ?
148

* * *

# System: LNCaP (PSMA+)
# Type: cell-based
# test.parameters: IC50 PC3 (PSMA−) / IC50 LNCaP (PSMA+)
The compounds listed here are annotated with their S (selectivity).
API note: the answer field is a bare number with no unit suffix.

What does the record list as S (selectivity) for CC[C@H](C)[C@@H]1NC(=O)CNC(=O)[C@@H]2Cc3c([nH]c4cc(OCCC(C)SSC[C@H](NC(=O)[C@H](Cc5ccccc5)NC(=O)[C@H](Cc5ccccc5)NC(=O)CCCCCCCNC(=O)CC[C@H](NC(=O)N[C@@H](CCC(=O)O)C(=O)O)C(=O)O)C(=O)O)ccc34)[S@+]([O-])C[C@H](NC(=O)CNC1=O)C(=O)N[C@@H](CC(N)=O)C(=O)N1C[C@H](O)C[C@H]1C(=O)N[C@@H]([C@@H](C)[C@@H](O)CO)C(=O)N2 (stereo partly shown) ?
22.5

# iterate: CC[C@H](C)[C@@H]1NC(=O)CNC(=O)[C@H]2Cc3c([nH]c4cc(OCc5ccc(NC(=O)[C@H](C)NC(=O)[C@@H](NC(=O)CCCCCN6C(=O)CC(SC[C@H](NC(=O)[C@H](Cc7ccccc7)NC(=O)[C@H](Cc7ccccc7)NC(=O)CCCCCCCNC(=O)CCC(NC(=O)NC(CCC(=O)O)C(=O)O)C(=O)O)C(=O)O)C6=O)C(C)C)cc5)ccc34)[S+]([O-])C[C@H](NC(=O)CNC1=O)C(=O)N[C@@H](CC(N)=O)C(=O)N1C[C@H](O)C[C@H]1C(=O)N[C@@H]([C@@H](C)[C@@H](O)CO)C(=O)N2 (stereo partly shown)
1819

# iterate: CC[C@H](C)[C@@H]1NC(=O)CNC(=O)[C@@H]2Cc3c([nH]c4cc(OCCCCCCN5C(=O)CC(SC[C@H](NC(=O)[C@H](Cc6ccccc6)NC(=O)[C@H](Cc6ccccc6)NC(=O)CCCCCCCNC(=O)CC[C@H](NC(=O)N[C@@H](CCC(=O)O)C(=O)O)C(=O)O)C(=O)O)C5=O)ccc34)[S@+]([O-])C[C@H](NC(=O)CNC1=O)C(=O)N[C@@H](CC(N)=O)C(=O)N1C[C@H](O)C[C@H]1C(=O)N[C@@H]([C@@H](C)[C@@H](O)CO)C(=O)N2 (stereo partly shown)
249

# iterate: CC[C@H](C)[C@@H]1NC(=O)CNC(=O)[C@@H]2Cc3c([nH]c4cc(OCc5ccc(NC(=O)[C@H](C)NC(=O)[C@@H](NC(=O)CCN6C(=O)CC(SC[C@H](NC(=O)[C@H](Cc7ccccc7)NC(=O)[C@H](Cc7ccccc7)NC(=O)CCCCCCCNC(=O)CC[C@H](NC(=O)N[C@@H](CCC(=O)O)C(=O)O)C(=O)O)C(=O)O)C6=O)C(C)C)cc5)ccc34)[S@+]([O-])C[C@H](NC(=O)CNC1=O)C(=O)N[C@@H](CC(N)=O)C(=O)N1C[C@H](O)C[C@H]1C(=O)N[C@@H]([C@@H](C)[C@@H](O)CO)C(=O)N2 (stereo partly shown)
191
